- system tested: ORP4L-myc-his (Homo sapiens)
- Sequence (Q969R2 1-916): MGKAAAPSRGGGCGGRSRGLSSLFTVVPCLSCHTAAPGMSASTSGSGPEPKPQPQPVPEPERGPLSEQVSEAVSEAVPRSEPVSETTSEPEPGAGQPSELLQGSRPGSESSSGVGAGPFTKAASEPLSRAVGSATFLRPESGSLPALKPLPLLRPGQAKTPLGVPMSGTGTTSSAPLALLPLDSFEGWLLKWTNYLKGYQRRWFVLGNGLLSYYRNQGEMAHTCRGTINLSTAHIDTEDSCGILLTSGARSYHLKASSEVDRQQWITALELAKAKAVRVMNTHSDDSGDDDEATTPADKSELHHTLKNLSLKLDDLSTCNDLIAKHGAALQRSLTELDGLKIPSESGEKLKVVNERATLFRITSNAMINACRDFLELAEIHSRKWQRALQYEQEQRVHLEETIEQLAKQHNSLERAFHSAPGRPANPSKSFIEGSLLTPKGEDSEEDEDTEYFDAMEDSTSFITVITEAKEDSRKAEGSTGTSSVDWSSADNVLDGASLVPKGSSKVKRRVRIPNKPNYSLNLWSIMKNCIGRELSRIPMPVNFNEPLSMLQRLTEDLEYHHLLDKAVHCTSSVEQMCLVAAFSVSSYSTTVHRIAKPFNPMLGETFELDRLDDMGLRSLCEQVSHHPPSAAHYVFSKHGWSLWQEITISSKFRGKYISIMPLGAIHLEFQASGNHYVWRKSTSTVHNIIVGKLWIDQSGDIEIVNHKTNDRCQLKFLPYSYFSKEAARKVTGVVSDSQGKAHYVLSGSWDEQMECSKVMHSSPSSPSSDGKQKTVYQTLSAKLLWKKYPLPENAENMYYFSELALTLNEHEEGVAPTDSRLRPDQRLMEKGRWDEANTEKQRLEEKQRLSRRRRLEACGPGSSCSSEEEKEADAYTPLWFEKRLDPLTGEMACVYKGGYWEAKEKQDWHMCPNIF
- experiment description: [3H]-25-hydroxycholesterol charcoal-dextran binding assay with ORP4L-myc-his
assay metric: Ki
Output should be the measured figure followed by the unit it is expressed in.

-- ask Any idea what Ki was measured for CC(C)CCC(=O)[C@@H](C)[C@@]1(O)[C@@H](OC2OCC(O)C(OC3OCC(O)C(O)C3O)C2O)C[C@H]2[C@@H]3CC=C4C[C@@H](O)CC[C@]4(C)C3CC[C@@]21C (stereo partly shown) ?
-- reply 760 nM

-- ask Any idea what Ki was measured for C=CCOC(=O)NCc1ccc(CNC(=O)OC2C(O)COC(OC3C(O)COC(O[C@H]4C[C@H]5[C@@H]6CC=C7C[C@@H](O)CC[C@]7(C)C6CC[C@]5(C)[C@@]4(O)[C@H](C)C(=O)CCC(C)C)C3OC(C)=O)C2OC(=O)c2ccc(OC)cc2)cc1 (stereo partly shown) ?
-- reply 43 nM

-- ask Any idea what Ki was measured for C=CCOC(=O)NCc1ccc(CNC(=O)OC2COC(OC3C(O)COC(O[C@H]4C[C@H]5[C@@H]6CC=C7C[C@@H](O)CC[C@]7(C)C6CC[C@]5(C)[C@@]4(O)[C@H](C)C(=O)CCC(C)C)C3OC(C)=O)C(OC(=O)c3ccc(OC)cc3)C2O)cc1 (stereo partly shown) ?
-- reply 150 nM

-- ask Any idea what Ki was measured for CC(=O)OC1C(O[C@H]2C[C@H]3[C@@H]4CC=C5C[C@@H](O)CC[C@]5(C)C4CC[C@]3(C)[C@@]2(O)[C@H](C)C(=O)CCC(C)C)OCC(O)C1OC1OCC(O)C(O)C1O (stereo partly shown) ?
-- reply 120 nM

meta.source: patent US9790253B2
